- tested.system: Citrate synthase, peroxisomal (Saccharomyces cerevisiae (strain ATCC 204508 / S288c))
- procedure.summary: CIT2-GFP expression modulators in yeast, dose response, flow cytometry, MLPCN hits (AID 2744)
- conditions: S. cerevisiae CIT2-GFP strain, flow cytometry fluorescence, 3 h
parameter.measured: EC50

Query: Give reported EC50 value for CCCCC(=O)NNC(=S)NC(=O)c1ccc(C)cc1
Result: 3.39 µM

Query: Give reported EC50 value for Cc1ccc(/C(N)=N/OC(=O)c2ccc(F)cc2)cc1
Result: 3.81 µM

Query: Give reported EC50 value for N/C(Cc1ccc(Cl)cc1Cl)=N\OC(=O)c1cccs1
Result: 1.48 µM

Query: Give reported EC50 value for N/C(Cc1ccc(Cl)cc1)=N\OC(=O)c1cccc2ccccc12
Result: 1.35 µM

Query: Give reported EC50 value for CCCOc1ccc(C(=O)NNC(=S)NC(=O)CC)cc1
Result: 3.1 µM

Query: Give reported EC50 value for Cc1ccc(/C=C/C(=O)c2ccccc(=O)c2O)c(C)c1
Result: 14.7 µM

Query: Give reported EC50 value for N/C(Cc1ccc(Cl)cc1)=N\OC(=O)c1ccccc1
Result: 3.35 µM

Query: Give reported EC50 value for N/C(=N\OC(=O)c1cc(Br)ccc1Cl)c1ccccn1
Result: 4.11 µM

Query: Give reported EC50 value for CNc1nc(N)c([N+](=O)[O-])c(Nc2cccc(F)c2)n1
Result: 4.36 µM

Query: Give reported EC50 value for Cc1ccc(O)c(N=Nc2nccs2)c1
Result: 11.3 µM

Query: Give reported EC50 value for O=C(Nc1ccc(Cl)cc1)ON=C1CCCC1
Result: 1.23 µM
